# protein stability index per record follows
B1: ZBTB22 (parent)
chain: HTGLKPYECGVCAKKFMWRDSFMR

Variants of: B1
assay-info: protein stability index of a GFP-peptide fusion (GPS, HEK-293T) (PSI 1-6); higher = more stable;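 also: lentivirally expressed fusions sorted by FACS into six bins by GFP to DsRed ratio, PSI derived from sequencing read proportions per bin multiplied by bin number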
condition-description: c terminus: a fixed tail appended
Respond with the number and no other words.

Reference set (4 entries):
In [3]: df
Out[3]:
                          seq_text        measurement_label  measured
0  HTGLKPYECGVCAKKFMWRDSFMQ [R24Q]  protein stability index       1.6
1  HTGLKPYECGVCAKGFMWRDSFMR [K15G]  protein stability index      2.95
2   HTGLKPYEAGVCAKKFMWRDSFMR [C9A]  protein stability index      1.46
3  HTGLKPYECGVCAKKFMMRDSFMR [W18M]  protein stability index      1.78

Input HTGLKPMECGVCAKKFMWRDSFMR [Y7M] . Output protein stability index: 2.08

Input HTGLKPYECGVCAKKFMARDSFMR [W18A] . Output protein stability index: 1.06

Input HTGLKPYECLVCAKKFMWRDSFMR [G10L] . Output protein stability index: 2.17

Input HTELKPYECGVCAKKFMWRDSFMR [G3E] . Output protein stability index: 3.34

Input HTGLKPYECGVCAKKFTWRDSFMR [M17T] . Output protein stability index: 3.13
